# Test system: S. typhimurium TA100
# MEASUREMENT_NOTES: Ames microplate test, TA100;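 note: reference level is the mean solvent-control yellow wells plus SD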
# Type: cell-based, Salmonella typhimurium
# RECORDED_CONDITIONS: 2.0 mM, without S9
# Method: Bacteria were grown overnight in growth medium. Table 9. Ames microplate test results.
Rule: Increase in the number of yellow wells compared to the reference level of 0.8 or more gives Yes; anything lower gives No.

- COMPOUND: "CC(CO)NC(=O)/C=C/c1ccc(Cl)cc1 (stereo not drawn) [Compound A-102]"
  LABEL: "Yes"
- COMPOUND: "Cc1ccc(/C=C/C(=O)NCCCCCO)cc1 [H-415/21]"
  LABEL: "No"
- COMPOUND: "O=C(/C=C/c1ccccc1)NCCCCCO [Compound A-133]"
  LABEL: "No"
- COMPOUND: "O=C(/C=C/c1ccccc1)NCCCCCCO [H-425/21]"
  LABEL: "No"
- COMPOUND: "O=C(/C=C/c1ccc(Cl)cc1)NCCCCCO [Compound A-111]"
  LABEL: "No"

Hey, just so you know, these numbers are from patent EP4324461A1.
